Values compiled from patent US20240116985A1.

assayed.target: T1, B-cat-Halo (beta-catenin HaloTag NanoBRET construct expressed in HEK293 cells) (UniProt P35222 1-781)
T1 sequence (looked up): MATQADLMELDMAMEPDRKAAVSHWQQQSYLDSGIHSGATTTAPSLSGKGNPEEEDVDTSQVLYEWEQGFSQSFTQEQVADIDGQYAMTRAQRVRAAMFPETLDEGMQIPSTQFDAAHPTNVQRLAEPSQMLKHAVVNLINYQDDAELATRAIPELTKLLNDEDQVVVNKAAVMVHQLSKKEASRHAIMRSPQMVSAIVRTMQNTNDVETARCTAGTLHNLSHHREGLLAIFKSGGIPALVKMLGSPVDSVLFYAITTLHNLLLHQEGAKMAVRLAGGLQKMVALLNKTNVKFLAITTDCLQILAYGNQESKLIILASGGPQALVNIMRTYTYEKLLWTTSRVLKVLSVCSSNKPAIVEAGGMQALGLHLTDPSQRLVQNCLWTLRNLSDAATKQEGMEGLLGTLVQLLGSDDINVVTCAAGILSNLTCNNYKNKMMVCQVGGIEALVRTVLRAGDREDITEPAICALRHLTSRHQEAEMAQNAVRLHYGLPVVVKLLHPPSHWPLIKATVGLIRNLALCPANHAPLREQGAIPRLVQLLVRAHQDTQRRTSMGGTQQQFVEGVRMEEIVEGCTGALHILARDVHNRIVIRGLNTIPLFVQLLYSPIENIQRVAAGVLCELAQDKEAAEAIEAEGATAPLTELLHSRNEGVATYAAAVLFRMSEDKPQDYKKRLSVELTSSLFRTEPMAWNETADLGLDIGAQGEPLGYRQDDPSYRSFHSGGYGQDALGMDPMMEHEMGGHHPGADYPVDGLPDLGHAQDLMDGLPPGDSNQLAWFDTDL
run.description: cell-based or functional assay
Starred links: 1 amine or outer side, 2 acyl side, 3 side chain; linkers in the order of their positions; H or OH if unused. Positions of bridges follow the written chain, without caps; N, C: chain ends. Non-standard residues stand in square brackets, D forms with d. Primed or numbered codes have the meaning given here. B5(15) = 2-amino-2-(pent-4-en-1-yl)hept-6-enoic acid (2,2-bis(4-pentenyl)glycine), stitching residue bearing two staples, C=CCCCC(CCCC=C)(N[*:1])C(=O)[*:2]; B5(23) = 2-amino-2-(pent-4-en-1-yl)hept-6-enoic acid (2,2-bis(4-pentenyl)glycine), stitching residue, C=CCCCC(CCCC=C)(N[*:1])C(=O)[*:2]; Bta = N[C@@H](Cc1csc2ccccc12)C(=O)O; αAllylPro = C=CC[C@@]1(C(=O)O)CCCN1; S8 = C=CCCCCCC[C@](C)(N)C(=O)O
outcome.measure: NanoBRET Abs IC50 (µM)
Please respond with the number in µM and leave the unit unwritten.

binder="Ac-[αAllylPro]DF[B5(23)]DEAAFL[S8]F[Bta]Q-NH2 (staple 1-4, 4-11, Stapled peptide composition; also called Ac-PL3-Asp-Phe-B5-Asp-Glu-Ala-Ala-Phe-Leu-S8-Phe-BztA-Gln-NH2) [I-1550]" outcome_measure="NanoBRET Abs IC50" units=µM endpoint_value=15.3

// below: NanoBRET Abs IC50 requested for another binder
Note to self: NanoBRET Abs IC50 recorded for Ac-[αAllylPro]DQ[B5(15)]DEAAFL[S8]F[Bta]Q-NH2 (staple 1-4, 4-11, Stapled peptide composition; also called Ac-PL3-Asp-Gln-B5-Asp-Glu-Ala-Ala-Phe-Leu-S8-Phe-BztA-Gln-NH2) [I-1541] was 34.7
